Documented tissue uptake at 120 h across a set of molecules
- Test Name: Biodistribution of 177Lu-labeled αMSH analogues in mice bearing SK-MEL-1 human melanoma
- Experimental Context: male, NRG (NOD.Cg-Rag1tm1Mom Il2rgtm1Wjl/SzJ), mouse, lungs, total radioactivity
The answer is to be given in %ID/g; state only the numeric part.

Below, each entry is followed by its recorded tissue uptake at 120 h result.
CCCC[C@H](NC(=O)CN1CCC(NC(=O)[C@H](CCCCNC(=O)CN2CCN(CC(=O)O)CCN(CC(=O)O)CCN(CC(=O)O)CC2)NC(=O)CNC(=O)CCCc2ccc(-c3ccc(C)cc3)cc2)CC1)C(=O)N[C@H]1CC(=O)NCCCC[C@@H](C(N)=O)N(C)C(=O)[C@H](Cc2c[nH]c3ccccc23)NC(=O)[C@H](CCCNC(=N)N)N(C)C(=O)[C@@H](Cc2ccccc2)NC(=O)[C@H](Cc2c[nH]cn2)NC1=O [^177Lu-labeled CCZ01158, metal not drawn] : 2.15
CCCC[C@H](NC(=O)CN1CCC(NC(=O)[C@H](CCCCNC(=O)CN2CCN(CC(=O)O)CCN(CC(=O)O)CCN(CC(=O)O)CC2)NC(=O)[C@H](CCC(=O)O)NC(=O)CCCc2ccc(I)cc2)CC1)C(=O)N[C@H]1CC(=O)NCCCC[C@@H](C(N)=O)N(C)C(=O)[C@H](Cc2c[nH]c3ccccc23)NC(=O)[C@H](CCCNC(=N)N)N(C)C(=O)[C@@H](Cc2ccccc2)NC(=O)[C@H](Cc2c[nH]cn2)NC1=O [^177Lu-labeled CCZ01118, metal not drawn] : 0.15

Return reported tissue uptake at 120 h; argument: CCCC[C@H](NC(=O)CN1CCC(NC(=O)[C@H](CCCCNC(=O)CN2CCN(CC(=O)O)CCN(CC(=O)O)CCN(CC(=O)O)CC2)NC(=O)CNC(=O)CCCc2ccc(I)cc2)CC1)C(=O)N[C@H]1CC(=O)NCCCC[C@@H](C(N)=O)N(C)C(=O)[C@H](Cc2c[nH]c3ccccc23)NC(=O)[C@H](CCCNC(=N)N)N(C)C(=O)[C@@H](Cc2ccccc2)NC(=O)[C@H](Cc2c[nH]cn2)NC1=O [^177Lu-labeled CCZ01148, metal not drawn] 2.35

----------
Some molecules, each annotated with its measured tissue uptake at 4 h.
- Test Name: Biodistribution of 177Lu-labeled αMSH analogues in mice bearing B16F10 mouse melanoma
- Assay type: in vivo, C57BL/6J mice
- Experimental Context: mouse, liver, iv, total radioactivity; 4 h p.i., C57BL/6J mice, B16F10 melanoma; read-out: Biodistribution, Liver
Number only, in %ID/g; omit the unit.

// worked examples, tissue uptake at 4 h included
CCCC[C@H](NC(=O)CN1CCC(NC(=O)[C@H](CCCCNC(=O)CN2CCN(CC(=O)O)CCN(CC(=O)O)CCN(CC(=O)O)CC2)NC(=O)[C@H](CCC(=O)O)NC(=O)CCCc2ccc(I)cc2)CC1)C(=O)N[C@H]1CC(=O)NCCCC[C@@H](C(N)=O)N(C)C(=O)[C@H](Cc2c[nH]c3ccccc23)NC(=O)[C@H](CCCNC(=N)N)N(C)C(=O)[C@@H](Cc2ccccc2)NC(=O)[C@H](Cc2c[nH]cn2)NC1=O [^177Lu-labeled CCZ01118, metal not drawn] : 3.58
CCCC[C@H](NC(=O)CN1CCC(NC(=O)[C@H](CCCCNC(=O)CN2CCN(CC(=O)O)CCN(CC(=O)O)CCN(CC(=O)O)CC2)NC(=O)[C@H](CCC(=O)O)NC(=O)CCCc2ccc(I)cc2)CC1)C(=O)N[C@H]1CC(=O)NCCCC[C@@H](C(N)=O)N(C)C(=O)[C@H](Cc2c[nH]c3ccccc23)N(C)C(=O)[C@H](CCCNC(=N)N)N(C)C(=O)[C@@H](Cc2ccccc2)NC(=O)[C@H](Cc2c[nH]cn2)N(C)C1=O [^177Lu-labeled CCZ01088, metal not drawn] : 1.98

Turning now to a further molecule:
Any idea what its tissue uptake at 4 h is? The molecule is CCCC[C@H](NC(=O)CN1CCC(NC(=O)CN2CCN(CC(=O)O)CCN(CC(=O)O)CCN(CC(=O)O)CC2)CC1)C(=O)N[C@H]1CC(=O)NCCCC[C@@H](C(N)=O)NC(=O)[C@H](Cc2c[nH]c3ccccc23)NC(=O)[C@H](CCCNC(=N)N)NC(=O)[C@@H](Cc2ccccc2)NC(=O)[C@H](Cc2c[nH]cn2)NC1=O [^177Lu-labeled CCZ01048, metal not drawn, reference compound] 0.48
